Values compiled from PubChem BioAssay AID540252.

- measuredTarget: glucose-6-phosphate dehydrogenase-6-phosphogluconolactonase (Plasmodium falciparum 3D7)
- protocolNotes: inhibition of P. falciparum G6PD activity – biochemical, end-point NADPH detection, orthogonal assay, dose response (AID 540252)
- conditionSummary: purified PfG6PD enzyme, NADPH direct detection
Active and inactive are the calls of the source. How the calls were made is not given here.
Outcome codes: True for active, False for inactive

INSERT INTO results (smilesinput, measuredtarget, answerlabel) VALUES
  ('CN(C)c1ccc(C=c2c3cc([N+](=O)[O-])ccc3n3c2cc(-c2ccccc2)[n+]3C)cc1', 'glucose-6-phosphate dehydrogenase-6-phosphogluconolactonase (Plasmodium falciparum 3D7)', 'True'),
  ('CCc1ccc(S(=O)(=O)Nc2cc(SCC(=O)O)c(O)c3ccccc23)cc1', 'glucose-6-phosphate dehydrogenase-6-phosphogluconolactonase (Plasmodium falciparum 3D7)', 'False'),
  ('COC(=O)[C@H](CCSC)NC(=O)c1cc2c(cn1)[nH]c1ccccc12', 'glucose-6-phosphate dehydrogenase-6-phosphogluconolactonase (Plasmodium falciparum 3D7)', 'False'),
  ('Oc1cc(-n2cccn2)c(O)cc1-n1cccn1', 'glucose-6-phosphate dehydrogenase-6-phosphogluconolactonase (Plasmodium falciparum 3D7)', 'False'),
  ('Cc1ccc2nc3sc(C(=O)N4CCOCC4)c(N)c3cc2c1', 'glucose-6-phosphate dehydrogenase-6-phosphogluconolactonase (Plasmodium falciparum 3D7)', 'False');

---

- measuredTarget: glucose-6-phosphate dehydrogenase-6-phosphogluconolactonase (Plasmodium falciparum 3D7)
- protocolNotes: inhibition of P. falciparum G6PD activity – biochemical, end-point NADPH detection, orthogonal assay, dose response (AID 540252)
- conditionSummary: purified PfG6PD enzyme, NADPH direct detection
Activity calls are given as the source filed them. The rule behind the calls is not given here.
Outcome codes: active, inactive

INSERT INTO measurements (compound, measuredtarget, answerlabel) VALUES
  ('CCn1c(=O)n(CC)c2cc(N3CCCC3)c(NC(=O)c3cccc(C)c3)cc21', 'glucose-6-phosphate dehydrogenase-6-phosphogluconolactonase (Plasmodium falciparum 3D7)', 'inactive'),
  ('COc1ccc(CCn2c(NN=C3CCCCC3)nc3c2c(=O)[nH]c(=O)n3C)cc1', 'glucose-6-phosphate dehydrogenase-6-phosphogluconolactonase (Plasmodium falciparum 3D7)', 'inactive'),
  ('Cc1no[n+]([O-])c1COc1cccc(/C=N/Nc2nncn2N)c1', 'glucose-6-phosphate dehydrogenase-6-phosphogluconolactonase (Plasmodium falciparum 3D7)', 'inactive'),
  ('O=C(NCCCN1CCOCC1)c1sc2cc([N+](=O)[O-])ccc2c1Cl', 'glucose-6-phosphate dehydrogenase-6-phosphogluconolactonase (Plasmodium falciparum 3D7)', 'active'),
  ('O=C1NC(=O)N(c2ccccc2)C(=O)/C1=C/c1ccc([N+](=O)[O-])s1', 'glucose-6-phosphate dehydrogenase-6-phosphogluconolactonase (Plasmodium falciparum 3D7)', 'inactive'),
  ('Cc1ccc(NS(=O)(=O)c2ccccc2Cl)c2c1CC(C)(C)O2', 'glucose-6-phosphate dehydrogenase-6-phosphogluconolactonase (Plasmodium falciparum 3D7)', 'inactive'),
  ('Cc1ccc(-c2c(C(=O)N/N=C/c3cccs3)nnn2-c2nonc2N)cc1', 'glucose-6-phosphate dehydrogenase-6-phosphogluconolactonase (Plasmodium falciparum 3D7)', 'inactive'),
  ('COc1cc(N2C(=O)C=CC2=O)ccc1N1C(=O)C=CC1=O', 'glucose-6-phosphate dehydrogenase-6-phosphogluconolactonase (Plasmodium falciparum 3D7)', 'active'),
  ('O=[N+]([O-])c1ccc(-[n+]2ccc3ccccc3c2)c([N+](=O)[O-])c1', 'glucose-6-phosphate dehydrogenase-6-phosphogluconolactonase (Plasmodium falciparum 3D7)', 'inactive'),
  ('CCN(CC)c1nc(N)nc(NS(=O)(=O)c2ccc(Cl)cc2)n1', 'glucose-6-phosphate dehydrogenase-6-phosphogluconolactonase (Plasmodium falciparum 3D7)', 'inactive'),
  ('COc1ccc(N=C2C(=S)N(c3ccc(OC)cc3)C(=NS(=O)(=O)c3ccccc3)N2c2ccccc2)cc1', 'glucose-6-phosphate dehydrogenase-6-phosphogluconolactonase (Plasmodium falciparum 3D7)', 'inactive'),
  ('O=S(=O)(Nc1cc(Sc2cccc3cccnc23)c(O)c2ccccc12)c1ccc(F)cc1', 'glucose-6-phosphate dehydrogenase-6-phosphogluconolactonase (Plasmodium falciparum 3D7)', 'inactive'),
  ('CC1(C)CC2(CC(c3ccccc3F)c3ccc(O)c(O)c3O2)NC(=S)N1 (configuration not stated)', 'glucose-6-phosphate dehydrogenase-6-phosphogluconolactonase (Plasmodium falciparum 3D7)', 'active'),
  ('Cc1ccc(S(=O)(=O)SC/C=C/CSS(=O)(=O)c2ccc(C)cc2)cc1', 'glucose-6-phosphate dehydrogenase-6-phosphogluconolactonase (Plasmodium falciparum 3D7)', 'active'),
  ('COc1ccc(C(=O)Nc2sc3c(c2C(=O)O)CC(C)(C)OC3)cc1', 'glucose-6-phosphate dehydrogenase-6-phosphogluconolactonase (Plasmodium falciparum 3D7)', 'inactive'),
  ('COc1cc(/C=C2\SC(c3ccc(C)cc3)=NC2=O)cc(OC)c1O', 'glucose-6-phosphate dehydrogenase-6-phosphogluconolactonase (Plasmodium falciparum 3D7)', 'inactive'),
  ('Cc1cnc(C=NNC(N)=S)c2cccc(N)c12', 'glucose-6-phosphate dehydrogenase-6-phosphogluconolactonase (Plasmodium falciparum 3D7)', 'inactive'),
  ('COc1ccc(C(=O)c2c(C(F)(F)F)oc3c2C(=O)c2ccccc2C3=O)cc1OC', 'glucose-6-phosphate dehydrogenase-6-phosphogluconolactonase (Plasmodium falciparum 3D7)', 'inactive'),
  ('COc1ccc(/C=C/c2nc3ccccc3n2C)cc1', 'glucose-6-phosphate dehydrogenase-6-phosphogluconolactonase (Plasmodium falciparum 3D7)', 'inactive'),
  ('O=c1ccsn1Cc1ccccc1', 'glucose-6-phosphate dehydrogenase-6-phosphogluconolactonase (Plasmodium falciparum 3D7)', 'active'),
  ('COc1cc(NCc2ccccc2)c2ncn(Cc3ccccc3)c2c1', 'glucose-6-phosphate dehydrogenase-6-phosphogluconolactonase (Plasmodium falciparum 3D7)', 'inactive'),
  ('O=C(CNC(=O)c1ccco1)OCC(=O)c1ccc([N+](=O)[O-])cc1', 'glucose-6-phosphate dehydrogenase-6-phosphogluconolactonase (Plasmodium falciparum 3D7)', 'active');

---

- measuredTarget: glucose-6-phosphate dehydrogenase-6-phosphogluconolactonase (Plasmodium falciparum 3D7)
- protocolNotes: inhibition of P. falciparum G6PD activity – biochemical, end-point NADPH detection, orthogonal assay, dose response (AID 540252)
- conditionSummary: purified PfG6PD enzyme, NADPH direct detection
The source made the active and inactive calls. How the calls were made is not given here.
Outcome codes: Y (active), N (inactive)

INSERT INTO results (compound, answerlabel) VALUES
  ('O=C(Cn1sc2ccccc2c1=O)NC12CC3CC(CC(C3)C1)C2', 'Y'),
  ('NNC(=O)CN1C(c2ccccc2Br)=Nc2ccc(Br)cc2C1c1ccccc1 (stereo unspecified)', 'N'),
  ('NS(=O)(=O)c1ccc(N/N=C/c2ccc(O)c(O)c2O)c([N+](=O)[O-])c1', 'Y'),
  ('Cc1cc(O)c(C(C)C)cc1N=Cc1ccc(N(C)C)cc1', 'N'),
  ('CC(=O)Nc1ccc2c(c1)Cc1cc(N3C(=O)C=CC3=O)ccc1-2', 'Y'),
  ('COc1ccc(CCn2c(NN=C(C)C)nc3c2c(=O)[nH]c(=O)n3C)cc1', 'N'),
  ('Cc1ccc(NC(=O)c2cc(N3C(=O)C=CC3=O)ccc2N2CCOCC2)cc1Cl', 'N'),
  ('COc1ccc(C(=O)/C=C2\Sc3ccccc3N2C)cc1', 'N'),
  ('COc1cc(-c2nnc3n2N=C(c2ccccc2)CS3)cc(OC)c1OC', 'N'),
  ('COc1cccc(/C=N/NC(=O)CSc2cccc3cccnc23)c1', 'N'),
  ('CCN1CCCC1CNC(=O)c1ccc2c(c1)NC(=O)/C(=C\c1ccccc1F)S2 (stereo unspecified)', 'N'),
  ('Brc1cc2[nH]cnc2c2ccccc12', 'N'),
  ('O=S(c1ccccc1O)S(=O)c1ccccc1O (stereo unspecified)', 'N'),
  ('COc1ccc(CCn2c(NN=C3CCCC3)nc3c2c(=O)[nH]c(=O)n3C)cc1', 'N'),
  ('c1nc(SSc2ncnc3nc[nH]c23)c2[nH]cnc2n1', 'Y'),
  ('[O-]/[N+](=C/c1cccnc1)c1ccc(Br)cc1', 'N'),
  ('O=C1C(=Cc2cccc(O)c2O)SC(=S)N1CCCN1CCOCC1', 'Y'),
  ('Cc1nnc(Sc2cc(NCCO)c([N+](=O)[O-])c3nonc23)s1', 'Y'),
  ('COc1ccc(-c2cn3cc(C)ccc3n2)cc1Br', 'N'),
  ('O=C(Nc1ccccc1C(=O)N/N=C/c1ccco1)c1ccccc1Cl', 'N'),
  ('c1ccc(OCc2nnc3n2N=C(c2ccccc2)CS3)cc1', 'N'),
  ('Cc1ccc(NC(=O)c2cc(N3C(=O)C=CC3=O)ccc2N2CCOCC2)cc1', 'N'),
  ('C#CCCc1cscc1/C=[N+](\[O-])c1ccc(C(=O)OCC)cc1', 'N'),
  ('CSc1nnc(NC(=O)c2ccc3c(c2)OCO3)s1', 'N'),
  ('Cc1ccc(-c2nn(C)c(=O)c3ccccc23)cc1CNC(=O)/C=C/c1ccccc1', 'N'),
  ('Cc1ccc(-c2csc(NC(=O)c3ccccc3F)c2C(=O)O)cc1', 'N'),
  ('Cc1cc(NC(=O)c2oc3ccccc3c2C)ccc1-n1cnnn1', 'N'),
  ('Cc1ccc(NC(=O)Cn2sc3nc(C)cc(C)c3c2=O)c(Cl)c1', 'N'),
  ('Oc1ccc(C2C[C@H]3CC[C@@H]2C3)cc1O (stereo partly specified)', 'Y'),
  ('O=c1[nH]sc2cc(F)ccc12', 'N'),
  ('CC1(C)CN(c2ccccc2)N(C(=O)c2ccc(C#N)cc2)C1=O', 'N'),
  ('COc1cccc(C(=O)Nc2nnc(C(C)C)s2)c1', 'N'),
  ('COc1cccc(CNc2ccc3[nH]c(=O)[nH]c3c2)c1OCc1ccc(F)cc1', 'N'),
  ('CN1C(=O)CSc2ccc(NC(=O)N3CCc4ccccc43)cc21', 'N'),
  ('CCC(C)c1ccccc1OCCn1ccnc1 (stereo unspecified)', 'N'),
  ('CCC(CO)[n+]1c(C)cc(/C=C2\Sc3ccccc3N2Cc2ccccc2)cc1C (stereo unspecified)', 'N'),
  ('O=C(COc1ccccc1F)OCC(=O)c1ccc([N+](=O)[O-])cc1', 'Y'),
  ('O=C1CCN(c2ccccc2)N1', 'N'),
  ('O=[N+]([O-])c1c(NCCCO)cc(Sc2nc3ccccc3s2)c2nonc12', 'N'),
  ('COc1ccc(NS(=O)(=O)c2ccc(N3CCCC3)c(NC(=S)Nc3cccc(C)c3C)c2)cc1', 'N'),
  ('C=CCOc1c(Cl)cc(CNc2ccc(N(C)C)cc2)cc1OC', 'N'),
  ('COc1cc(-c2cc(=O)c3c(O)c(OC)c(OC)c(O)c3o2)ccc1O', 'N'),
  ('C=CCN1CCc2cccc3c2[C@H]1Cc1ccc(O)c(O)c1-3', 'N'),
  ('Cc1cc(=O)[nH]c(N/N=C/c2c(C)nn(-c3ccccc3)c2Cl)n1', 'Y'),
  ('CC(=O)OCC1(C)CN(c2ccccc2)NC1=O (stereo unspecified)', 'N'),
  ('COc1cc(/C=C/C(=O)c2ccc([N+](=O)[O-])o2)ccc1O', 'N');
